This collection of values is drawn from ChEMBL document CHEMBL1148129.

# assay details: Cytotoxicity against human KBV1 cells in presence of vinblastine
# Assay type: functional
# condition label: KB-V1, read-out: ED50 (the source's name)
measure name: EC50 (µg/mL)

[[record]]
compound = "COc1cc(/C=C/C(=O)O[C@@H]2C[C@@H]3[C@@H](OC(=O)c4ccccc4)[C@@H](OC(C)=O)[C@H](C2)N3C)cc(OC)c1OC"
units_label = "µg/mL"
inequality_symbol = "="
numeric_result = 1.1

[[record]]
compound = "COc1cc(/C=C\\C(=O)O[C@H]2C[C@H]3C[C@H](OC(=O)c4ccccc4)[C@@H](C2)N3C)cc(OC)c1OC"
units_label = "µg/mL"
inequality_symbol = "="
numeric_result = 0.3

[[record]]
compound = "COc1cc(/C=C/C(=O)O[C@@H]2C[C@@H]3[C@@H](OC(=O)c4ccccc4)[C@@H](O)[C@H](C2)N3C)cc(OC)c1OC"
units_label = "µg/mL"
inequality_symbol = "="
numeric_result = 0.3

[[record]]
compound = "CN1C2C[C@H](O)CC1[C@@H](OC(=O)c1ccccc1)C2 (stereo partly specified)"
units_label = "µg/mL"
inequality_symbol = ">"
numeric_result = 20

[[record]]
compound = "COc1cc(/C=C/C(=O)O[C@H]2C[C@H]3C[C@H](OC(=O)c4ccccc4)[C@@H](C2)N3C)cc(OC)c1OC"
units_label = "µg/mL"
inequality_symbol = "="
numeric_result = 0.2

[[record]]
compound = "COc1cc(/C=C/C(=O)O[C@@H]2C[C@@H]3[C@@H](OC(=O)c4cc(OC)c(OC)c(OC)c4)[C@@H](O)[C@H](C2)N3C)cc(OC)c1OC"
units_label = "µg/mL"
inequality_symbol = "="
numeric_result = 6.6

